Molecular target: T1, human IL-17F homodimer (human, UniProt Q96PD4 31-163)
T1 sequence (looked up): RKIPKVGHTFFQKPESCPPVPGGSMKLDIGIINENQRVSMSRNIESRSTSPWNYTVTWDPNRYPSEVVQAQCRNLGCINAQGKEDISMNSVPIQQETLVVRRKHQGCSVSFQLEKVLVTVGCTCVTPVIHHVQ
Experiment: cell-based or functional assay
# IC50 (nM), IL-6 secretion by MEF cells stimulated with IL-17F (5 ng/ml) and mTNF-α annotations
Give the value in nM but do not write nM after it.

{"columns": ["Binder", "Result unit", "Value reported"],
 "data": [
  ["2E12 antibody (antibody, V domains shown) VH: EVQLVESGGGLVQRGGSLRLSCAASGFTFSSYSMNWVRQAPGKGLEWISYISSSSSAIYYADSVKGRFTISRDNAKNSLYLQMNSLRDEDTAVYYCAREGYASGRYYNYYYGMDVWGQGTTVTVSS VL: EIVLTQSPATLSLSPGERATLSCRASQSVSSYLAWYQQKPGQAPRLLIYDASNRATGIPARFSVSGSGTDFTLTISSLEPEDFAVYYCQQRSSWSLTFGGGTKVEIK", "nM", 5.9],
  ["28B11 antibody (antibody, V domains shown) VH: QVQLVESGGGLVKPGGSLRLSCAASGFTFSNYYMTWIRQAPGKGLEWISYISSTGGNIYYADSVKGRFTISRDNAQNSLYLQMNSLRAEDTAVYYCARDGGVIISTAMFDYWGQGTTVTVSS VL: AIQLTQSPSSLSASVGDRVTITCRASQGISSALAWYQQKPGKAPKLLIYDASSLESGVPSRLSGSGSGTDFTLTISSLQPEDFATYYCQQFNSYPLTFGGGTKVEIK", "nM", 1.2]
]}

// moving on: another record for IC50 (nM), IL-6 secretion by MEF cells stimulated with IL-17F (5 ng/ml) and mTNF-α
Asked: IC50 (nM), IL-6 secretion by MEF cells stimulated with IL-17F (5 ng/ml) and mTNF-α for 21B10 antibody (antibody, V domains shown) VH: EVQLVESGGGLVQPGGSLRLSCAASGFTFSSYSMNWVRQAPGKGLEWVSYISGGSSTIYYADSVKGRFTISRDNAKNSLYLQMNSLRDEDTAVYYCAREGYVSGTYYNYYYGMDVWGQGTTVTVSS VL: EIVLTQSPATLSLSPGERATLSCRASQSVSSYLAWYQQKPGQAPRLLIYDAPNRATGIPARFSGSGSGTDFTLTISSLEPEDFAVYYCQQRSNWSLTFGGGTKVEIK ?
Given back: 2
